The origin of these recorded values is PubChem BioAssay AID1159580.

Parameter: normalized growth. Scope: all listed entries.
# assayProtocol: chemical genetic growth profiling, strain panel (AID 1159580);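 further: tested at 20 µM; growth read once vehicle control cultures reached saturation at 30 °C; 1 = growth at the plate median or of vehicle wells; lower values mean less growth of the strain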
# measurementContext: S. cerevisiae deletion strains, growth OD, locus YOR316C, strain cot1, active compounds read low
About 2,000 (36%) of roughly 5,500 compounds were called active. Inconclusive results (about 18%) are left out. The list shows a part of the results.

As a guide, the following entries are already answered.
{"molecule": "CC1=C(C(C)O)C2=NC1C=c1[nH]c(c(C)c1C(C)O)=Cc1[nH]c(c(CCC(=O)O)c1C)C=c1[nH]c(c(C)c1CCC(=O)O)=C2 (stereo not given)", "experimentalReadout": "normalized growth", "result": "1.02 (inactive)"}
{"molecule": "N=c1ccn2c(n1)O[C@@H]1C2O[C@H](CO)[C@H]1O (stereo not given in full)", "experimentalReadout": "normalized growth", "result": "1.02 (inactive)"}
{"molecule": "CC1/C(=N\\O)C[C@@H]2C[C@H]1C2(C)C (stereo not given in full)", "experimentalReadout": "normalized growth", "result": "1.03 (inactive)"}

[Q] Look up normalized growth of `COc1cc2c(cc1OC)[C@@H]1C(=O)c3ccc(OC)c(CC=C(C)C)c3O[C@@H]1CO2` and report it.
[A] 0.992 (inactive)

[Q] For the molecule CCN(CC)CCCC(C)Nc1c2ccc(Cl)cc2nc2ccc(OC)cc12 (stereo not given) , report normalized growth.
[A] 0.751 (active)

[Q] For the molecule CC1CC2C3CCC4=CC(=O)C=C[C@]4(C)[C@@]3(F)[C@@H](O)C[C@]2(C)[C@@]1(O)C(=O)CO (stereo not given in full) , give its reported normalized growth.
[A] 0.98 (inactive)

[Q] Consider the molecule CC1=C(/C=C/C(C)=C/C=C/C(C)=C/C=C/C=C(C)/C=C/C=C(C)/C=C/C2=C(C)C(=O)C(O)CC2(C)C)C(C)(C)CC(O)C1=O (stereo not given) . State its measured normalized growth.
[A] 0.994 (inactive)

[Q] Give normalized growth for the following molecule: CC(C[N+](C)(C)C)OC(N)=O (stereo not given)
[A] 0.977 (inactive)

[Q] Output measured normalized growth for this item: COc1ccc(OC)c(C(O)C(C)N)c1 (stereo not given)
[A] 0.991 (inactive)

[Q] State its normalized growth: `O=C(O)c1cc2ccccc2[nH]1`
[A] 1.02 (inactive)

[Q] Tell me its normalized growth given `c1ccc(N=Nc2ccccc2)cc1` as the entry.
[A] 1.03 (inactive)

[Q] Write down normalized growth measured for item CC1(C)C(C=C(Cl)Cl)C1C(=O)OC(C#N)c1cccc(Oc2ccccc2)c1 (stereo not given)
[A] 0.996 (inactive)

[Q] Let me know recorded normalized growth for `CC(=O)OCC[N+](C)(C)C` , thanks.
[A] 1.01 (inactive)
